experimental_protocol: Quantitative highthroughput screen to assess conditional lethalithy of P12 Ichikawa cells grown in Human Plasma-Like Medium with dialyzed fetal bovine serum (HPLM+ds) (AID 1963879); also: nearly all actives have a fitted effect of over 35% in size
experimental_setup: ATP luminescence, 48 h; viability; series mostly up to 45.8 µM
Records with an inconclusive call do not appear. Calls of active or inactive are those of the source. Calls follow the shape of the dose curve; as a rule, active = well fitted cell-killing curve with a large enough effect; inconclusive = small, poorly fitted or top-dose-only effect; inactive = flat fitted curve, though single readings scatter.
Classes used: active, inactive

- OC(CN1CCN(c2cccc(Cl)c2)CC1)C(c1ccccc1)c1ccccc1 (stereo not drawn): active
- CC(C)OC(=O)C1=CN(C(=O)c2ccc(F)c(F)c2)CC(C)(C)c2c1[nH]c1ccccc21: inactive
- CC(=O)C1=C(O)C=C2Oc3c(C(C)=O)c(O)c(C)c(O)c3C2(C)C1=O (stereo not drawn): active
- COc1cccc2cc(-c3nc(C4CCC(C(=O)O)CC4)n4ncnc(N)c34)[nH]c12 (stereo not drawn): active
- CCNc1cc(NC2CCC(O)CC2)nc(Nc2ccc3c(ccn3Cc3ccccc3)c2)n1 (stereo not drawn): inactive
- Clc1cccc(-c2nnnn2Cc2cccnc2)c1Cl: active
- Nc1nc(N)nc(-c2cc(Cl)ccc2Cl)n1: inactive
- OCc1ccc(-c2ccc(-c3ccc(CO)s3)o2)s1: inactive
- CC1(C)SCCN(S(=O)(=O)c2ccc(OCC#CCO)cc2)[C@@H]1C(=O)NO: inactive
- COc1ccc(-c2nc3ccc(C4=NNC(=O)CC4C)cc3[nH]2)cc1 (stereo not drawn): inactive
- Cc1[nH]c(C=C2C(=O)Nc3ccccc32)c(C)c1CCC(=O)O: active
- CC(C)OC(=O)OCOP(=O)(CO[C@H](C)Cn1cnc2c(N)ncnc21)OCOC(=O)OC(C)C: inactive
- COc1nc(-c2ccc3c(c2)OCO3)n(-c2ccc(NC(=O)CSc3ccccc3)cc2)n1: inactive
- Cn1cc(C=CC(=O)c2cccc(F)c2)cc1C=CC(=O)NO: inactive
- COc1ccc2c(c1)c(CC(=O)OCC(=O)O)c(C)n2C(=O)c1ccc(Cl)cc1: inactive
- COc1cc(C=CC(=O)CC(=O)C=Cc2ccc(O)c(OC)c2)ccc1O: active
- CCN(CC)Cc1ccc2cc(COC(=O)Nc3ccc(C(=O)NO)cc3)ccc2c1: active
- CCCCC(C=O)NC(=O)C(CC(C)C)NC(=O)OCc1ccccc1 (stereo not drawn): inactive
- O=NN(CCCl)C(=O)NCCCl: inactive
- Cc1cn([C@H]2C[C@H](N=[N+]=[N-])[C@@H](CO)O2)c(=O)[nH]c1=O: active
- CN[C@H]1[C@@H](O[C@@H]2[C@H](O[C@@H]3[C@@H](O)[C@@H](O)[C@@H](N=C(N)N)[C@@H](O)[C@@H]3N=C(N)N)O[C@H](C)[C@@]2(O)C=O)O[C@@H](CO)[C@@H](O)[C@H]1O: inactive
- O=C(C=Cc1ccc(CN(CCO)CCc2c[nH]c3ccccc23)cc1)NO: active
- CC1(C)CC(=O)c2c(C(F)(F)F)nn(-c3ccc(C(N)=O)c(NC4CCC(O)CC4)c3)c2C1 (stereo not drawn): active
- CCCCc1ccc2nc(NC(=O)OC)[nH]c2c1: active
- COCCCN1CCC(NC(=O)c2cc(Cl)c(N)c3c2OCC3)CC1: inactive
- O=C(OCC#CCSc1nnc(-c2cccc3ccccc23)o1)c1cc2ccccc2s1: inactive
- CC[C@]1(O)C[C@@H]2CN(CCc3c([nH]c4ccccc34)[C@@](C(=O)OC)(c3cc4c(cc3OC)N(C=O)[C@@H]3C45CCN4CC=C[C@](CC)([C@H]45)[C@@H](OC(C)=O)[C@]3(O)C(=O)OC)C2)C1 (stereo partly drawn): inactive
- CC1(C)O[C@H]2CC(=O)OC[C@]23[C@H]2CC[C@@]4(C)[C@H](c5ccoc5)OC(=O)[C@H]5O[C@]54[C@]2(C)C(=O)C[C@@H]13: inactive

----------
experimental_protocol: Viability qHTS for spleen associated tyrosine kinase inhibitor (SYKi) drug resistant MV4-11 cells (AID 1963824); also: nearly all actives have a fitted effect of over 35% in size; also: potency is read from the fitted curve at half-maximal effect
experimental_setup: SYKi-resistant MV4-11 viability, CellTiter-Glo, 72 h; series mostly up to 45 µM
Experimental: Department of Medicine, Hematology/Oncology University Hospital Frankfurt, Germany. Trials have shown promising clinical activity of the selective SYK inhibitor entospletinib in patients with high expressing HOXA9/MEIS1 acute leukemias. […] 7; Detection; Luminescence; ViewLux plate reader (PerkinElmer). […] 1. Quantitative high-throughput screening (qHTS) of small molecule compounds was conducted on drug resistant SYKi MV4-11 cell line. […] 7. Luminescence was measured on a ViewLux plate reader (PerkinElmer).
Results filed as inconclusive are left out. Calls of active or inactive are those of the source. Calls come from the whole dose curve; as a rule, active = well fitted cell-killing curve with a large enough effect; inconclusive = small, poorly fitted or top-dose-only effect, or effect the other way; inactive = no such curve, though single readings can be large or run the other way.
recorded_endpoint: Potency

- O=C(COc1ccc(C(=O)c2ccccc2)cc1)NC1CCN(Cc2ccccc2)CC1: 7.31 µM (active)
- Cc1cc(-c2ccc(CC(=O)Nc3ccc(-c4cccnc4)cc3)cc2)ccn1: 11.8 µM (active)
- CCN=C1N[C@@H]2[C@@H](O)[C@H](O)[C@@H](CO)O[C@@H]2S1: inactive
- CCc1cccc2c3c([nH]c12)C(CC)(CC(=O)O)OCC3 (centres undefined): inactive

----------
experimental_protocol: Quantitative highthroughput screen to assess conditional lethalithy of SEM cells grown in RPMI1640 with unreated serum (RPMI+s) (AID 1963883); also: nearly all actives have a fitted effect of over 35% in size; also: potency is read from the fitted curve at half-maximal effect;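 as to viability: 100% = DMSO wells and 0% = empty wells without cells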
experimental_setup: SEM B-ALL cells, CellTiter-Glo viability, 48 h; series mostly up to 45.8 µM
Results filed as inconclusive are left out. The source made the active and inactive calls. The call rests on the fitted dose curve; in most records, active means well fitted cell-killing curve with a large enough effect; inconclusive means small, poorly fitted or top-dose-only effect, or effect the other way; inactive means no such curve, though single readings can be large or run the other way.
recorded_endpoint: Potency

• O=C1c2c(O)cc(O)cc2OC(c2ccc(O)c(O)c2)C1O (centres undefined) = inactive
• N=c1ccn2c(n1)O[C@H]1[C@@H](O)[C@@H](CO)O[C@H]12 = 132 nM (active)
• N#CC(c1ccnc(NCCc2cccnc2)n1)c1nc2ccccc2s1 (centres undefined) = inactive
• CC(C(=O)O)c1cccc(C(=O)c2ccccc2)c1 (centres undefined) = inactive

----------
experimental_protocol: Viability qHTS for spleen associated tyrosine kinase inhibitor (SYKi) naive MV4-11 cells (AID 1963823); also: nearly all actives have a fitted effect of over 40% in size
experimental_setup: MV4-11 AML viability, CellTiter-Glo luminescence, 72 h; series mostly up to 45 µM
Inconclusive results are not listed. Calls of active or inactive are those of the source. Calls follow the shape of the dose curve; as a rule, active = well fitted cell-killing curve with a large enough effect; inconclusive = small, poorly fitted or top-dose-only effect, or effect the other way; inactive = no such curve, though single readings can be large or run the other way.
Classes used: 1 = active, 0 = inactive

* CC(C)=CCC[C@](C)(O[C@@H]1O[C@H](CO[C@@H]2OC[C@@H](O)[C@H](O)[C@H]2O)[C@@H](O)[C@H](O)[C@H]1O)[C@H]1CC[C@]2(C)[C@@H]1[C@H](O)C[C@@H]1[C@@]3(C)CC[C@H](O[C@@H]4O[C@H](CO)[C@@H](O)[C@H](O)[C@H]4O[C@@H]4O[C@H](CO)[C@@H](O)[C@H](O)[C@H]4O)C(C)(C)[C@@H]3CC[C@]12C | 0
* CN(C)C(CCOc1cccc2ccccc12)c1ccccc1 (stereo not given) | 1
* COc1ccc(C[C@H](N)C(=O)N[C@@H]2[C@H](O)[C@H](n3cnc4c(N(C)C)ncnc43)O[C@@H]2CO)cc1 | 1
* c1ccc2[nH]ccc2c1 | 0
* OCC(Cc1ccccc1)Nc1nc(Oc2ccc3c(c2)CCC3)nc2c1ncn2Cc1ccc(-c2ccccc2)cc1 (stereo not given) | 1
* O=C(Nc1ccc2[nH]ncc2c1)C1CCC1 | 0
* CCC/C=C/C=C/C1CC(O)C(O)C(=O)C1CO (stereo not given) | 0
* C=CC(=O)Nc1ccc(CN2C(=O)N(c3cc(OC)cc(OC)c3)Cc3cnc(Nc4ccc(N5CCN(C)CC5)cc4)nc32)cc1 | 1
* Cc1nnc(C[C@@H]2C=C(c3ccc(Cl)cc3)c3ccccc3-n3c(C)nnc32)o1 | 1
* C/C=C/[C@@H]1C=C[C@@H]2C[C@H](C)CC[C@H]2[C@]1(C)/C(O)=C1/C(=O)[C@@H](CO)N(C)C1=O | 1
* O=C1Nc2ccc(O)cc2O[C@H]1O[C@@H]1O[C@H](CO)[C@@H](O)[C@H](O)[C@H]1O | 0
* O=S(=O)(c1ccc(S(=O)(=O)n2cnc3ccccc32)cc1)N1CCCCCC1 | 0
* NC1(C(=O)N[C@@H](CCO)c2ccc(Cl)cc2)CCN(c2ncnc3[nH]ccc23)CC1 | 1
* CC(C)(C)Nc1nc(Nc2ccc(C(N)=O)cc2)cc(N)c1C#N | 1
* CN[C@@H](C)C(=O)N[C@H]1CN(C(=O)CC(C)C)CC[C@H]2CC[C@@H](C(=O)NC(c3ccccc3)c3ccccc3)N2C1=O | 0
* CCn1cc(C(=O)O)c(=O)c2cc(F)c(N3CCNCC3)cc21 | 0
* CC1CCC2(C)C(CC(O)C(O)C23CO3)C1(C)CCC1=CC(O)OC1=O (stereo not given) | 0
* O=c1c(-c2ccccc2)c1-c1ccccc1 | 1
* OCC1OC(Oc2cc(O)cc(/C=C/c3ccc(O)cc3)c2)C(O)C(O)C1O (stereo not given) | 0
* C=C1CC23CC1(O)CCC2C1=CC2OC(=O)C(C)(C2O)C1C3C(=O)O (stereo not given) | 0

Value source: PubChem BioAssay (NCATS)
